- Tested on: MRSA NCTC 11939
- Assay remarks: Synergy testing: disc susceptibility, zone of inhibition on agar containing Laureth derivative
- Type: cell-based, Staphylococcus aureus
- Condition: antibiotic disc in the presence of L7 [C12E7] 0.0275 mmol/L
- Method: There now follows data relating to a screen for synergistic interaction between Laureth derivatives [C12E1 to C12E8] and 12 conventional anti-staphylococcal agents. […] The diameter of the zones of clearance were measured and recorded in millimetres. […]
Please respond with reported Zone of Inhibition for every item in the list.

[
  {
    "Molecule": "CC(=O)O[C@H]1C[C@@]2(C)[C@@H](C[C@@H](O)[C@H]3[C@@]4(C)CC[C@@H](O)[C@@H](C)[C@@H]4CC[C@@]32C)/C1=C(\\CCC=C(C)C)C(=O)O [Fusidic Acid]",
    "Property label": "Zone of Inhibition",
    "Endpoint value": "37 mm"
  },
  {
    "Molecule": "O=C(N[C@H](CO)[C@H](O)c1ccc([N+](=O)[O-])cc1)C(Cl)Cl [Chloramphenicol]",
    "Property label": "Zone of Inhibition",
    "Endpoint value": "22 mm"
  },
  {
    "Molecule": "COc1cc(Cc2cnc(N)nc2N)cc(OC)c1OC [Trimethoprim]",
    "Property label": "Zone of Inhibition",
    "Endpoint value": "30 mm"
  },
  {
    "Molecule": "CN[C@H](CC(C)C)C(=O)N[C@H]1C(=O)N[C@@H](CC(N)=O)C(=O)N[C@H]2C(=O)N[C@H]3C(=O)N[C@H](C(=O)N[C@H](C(=O)O)c4cc(O)cc(O)c4-c4cc3ccc4O)[C@H](O)c3ccc(c(Cl)c3)Oc3cc2cc(c3O[C@@H]2O[C@H](CO)[C@@H](O)[C@H](O)[C@H]2O[C@H]2C[C@](C)(N)[C@H](O)[C@H](C)O2)Oc2ccc(cc2Cl)[C@H]1O [Vancomycin]",
    "Property label": "Zone of Inhibition",
    "Endpoint value": "20 mm"
  }
]

Read the next record carefully.
Q: Respond only with Zone of Inhibition recorded for CO[C@H]1/C=C/O[C@@]2(C)Oc3c(C)c(O)c4c(O)c(c(/C=N/N5CCN(C)CC5)c(O)c4c3C2=O)NC(=O)/C(C)=C\C=C\[C@H](C)[C@H](O)[C@@H](C)[C@@H](O)[C@@H](C)[C@H](OC(C)=O)[C@@H]1C [Rifampicin]
A: 39 mm

----------
- Test system: MRSA NCTC 11939
- Assay remarks: Synergy testing: disc susceptibility, zone of inhibition on agar containing Laureth derivative
- Format: cell-based, Staphylococcus aureus
- Condition: antibiotic disc in the presence of L5 [C12E5] 0.0275 mmol/L
Property label: Zone of Inhibition (mm)
Give bare numbers, in mm.

See these solved cases before continuing.
[
  {
    "Chemical structure": "CCC[C@@H]1C[C@@H](C(=O)N[C@@H]([C@H]2O[C@H](SC)[C@H](O)[C@@H](O)[C@H]2O)[C@H](C)Cl)N(C)C1",
    "Measurement unit": "mm",
    "Zone of Inhibition": 33
  },
  {
    "Chemical structure": "CC(=O)O[C@H]1C[C@@]2(C)[C@@H](C[C@@H](O)[C@H]3[C@@]4(C)CC[C@@H](O)[C@@H](C)[C@@H]4CC[C@@]32C)/C1=C(\\CCC=C(C)C)C(=O)O",
    "Measurement unit": "mm",
    "Zone of Inhibition": 37
  }
]

Read the next record carefully.
Q: Respond only with Zone of Inhibition recorded for "COc1cc(Cc2cnc(N)nc2N)cc(OC)c1OC"
A: 30

----------
- System: MRSA NCTC 11939
- Assay remarks: Synergy testing: disc susceptibility, zone of inhibition on agar containing Laureth derivative
- Type: cell-based, Staphylococcus aureus
- Condition: antibiotic disc in the presence of L5 [C12E5] 0.0275 mmol/L
Please respond with reported Zone of Inhibition for every item in the list.
Give bare numbers, in mm.

See these solved cases before continuing.
[
  {
    "Chemical structure": "CN[C@H](CC(C)C)C(=O)N[C@H]1C(=O)N[C@@H](CC(N)=O)C(=O)N[C@H]2C(=O)N[C@H]3C(=O)N[C@H](C(=O)N[C@H](C(=O)O)c4cc(O)cc(O)c4-c4cc3ccc4O)[C@H](O)c3ccc(c(Cl)c3)Oc3cc2cc(c3O[C@@H]2O[C@H](CO)[C@@H](O)[C@H](O)[C@H]2O[C@H]2C[C@](C)(N)[C@H](O)[C@H](C)O2)Oc2ccc(cc2Cl)[C@H]1O",
    "Measurement unit": "mm",
    "Endpoint value": 20
  },
  {
    "Chemical structure": "COc1c(N2C[C@@H]3CCCN[C@@H]3C2)c(F)cc2c(=O)c(C(=O)O)cn(C3CC3)c12",
    "Measurement unit": "mm",
    "Endpoint value": 13
  },
  {
    "Chemical structure": "CO[C@H]1/C=C/O[C@@]2(C)Oc3c(C)c(O)c4c(O)c(c(/C=N/N5CCN(C)CC5)c(O)c4c3C2=O)NC(=O)/C(C)=C\\C=C\\[C@H](C)[C@H](O)[C@@H](C)[C@@H](O)[C@@H](C)[C@H](OC(C)=O)[C@@H]1C",
    "Measurement unit": "mm",
    "Endpoint value": 39
  }
]

Read the next record carefully.
Q: Respond only with Zone of Inhibition recorded for "CC[C@H]1OC(=O)[C@H](C)[C@@H](O[C@H]2C[C@@](C)(OC)[C@@H](O)[C@H](C)O2)[C@H](C)[C@@H](O[C@@H]2O[C@H](C)C[C@H](N(C)C)[C@H]2O)[C@](C)(O)C[C@@H](C)C(=O)[C@H](C)[C@@H](O)[C@]1(C)O"
A: 7

----------
Please respond with reported MIC for every item in the list.
- System: Enterococcus faecalis (VRE) MB 726
- Assay remarks: MIC agar dilution, VRE strain 28
- Assay type: cell-based
- Condition: 48 hrs
Answers are plain numbers, in µM.

[
  {
    "Chemical structure": "CCCCCCCCCCCCOCCOCCOCCO",
    "Endpoint value": 220
  },
  {
    "Chemical structure": "CCCCCCCCCCCCOCCOCCOCCOCCO",
    "Endpoint value": 220
  }
]

Value sought for every listed compound: MIC.
1. CCCCCCCCCCCCOCCO
2. CCCCCCCCCCCCOCCOCCO
3. CCCCCCCCCCCCOCCOCCOCCOCCOCCO

A:
440
220
220

----------
- Test system: Staphylococcus aureus
- Assay remarks: MIC agar dilution, micro-organism 13 (6571)
- Format: cell-based
- Condition: Staphylococcus aureus, 22 h, Staphylococcus aureus 6571; 22 hrs; read-out: MIC
Property label: MIC (µM)
Answers are plain numbers, in µM.

See these solved cases before continuing.
[
  {
    "Compound": "CCCCCCCCCCCCCCOCCOCCOCCOCCOCCOCCOCCOCCO",
    "Endpoint value": 110
  },
  {
    "Compound": "CCCCCCCCCCCCCCOCCOCCOCCOCCO",
    "Endpoint value": 55
  },
  {
    "Compound": "CCCCCCCCCCCCOCCOCCOCCOCCOCCOCCO",
    "Endpoint value": 110
  }
]

Value sought for every listed compound: MIC.
1. CCCCCCCCCCCCOCCOCCO
2. CCCCCCCCCCCCOCCOCCOCCOCCOCCOCCOCCOCCO
3. CCCCCCCCCCCCCCO [M0, 1-Tetradecanol, reference compound]

A:
1. 110
2. 110
3. 440

----------
Please respond with reported MIC for every item in the list.
- System: MRSA EMRSA 16 21354/95
- Assay remarks: MIC agar dilution, MRSA strain 44
- Assay type: cell-based
- Condition: Staphylococcus aureus, 48 hrs
Numbers only, in µM.

See these solved cases before continuing.
[
  {
    "Chemical structure": "CCCCCCCCCCCCOCCOCCO",
    "Measurement unit": "µM",
    "Endpoint value": 110
  },
  {
    "Chemical structure": "CCCCCCCCCCCCOCCOCCOCCOCCOCCO",
    "Measurement unit": "µM",
    "Endpoint value": 110
  },
  {
    "Chemical structure": "CCCCCCCCCCCCOCCOCCOCCO",
    "Measurement unit": "µM",
    "Endpoint value": 110
  },
  {
    "Chemical structure": "CCCCCCCCCCCCOCCO",
    "Measurement unit": "µM",
    "Endpoint value": 220
  },
  {
    "Chemical structure": "CCCCCCCCCCCCOCCOCCOCCOCCOCCOCCO",
    "Measurement unit": "µM",
    "Endpoint value": 440
  }
]

Read the next record carefully.
Q: Respond only with MIC recorded for "CCCCCCCCCCCCOCCOCCOCCOCCO"
A: 55

----------
- Tested on: Enterococcus faecalis (VRE) PHLS URINE 2000
- Assay remarks: MIC agar dilution, VRE strain 21
- Type: cell-based
- Condition: 22 hrs
Please respond with reported MIC for every item in the list.

See these solved cases before continuing.
[
  {
    "Compound": "CCCCCCCCCCCCOCCOCCOCCOCCOCCOCCOCCOCCO [L8, Octaethylene Glycol Monododecyl Ether]",
    "MIC": "220 µM"
  },
  {
    "Compound": "CCCCCCCCCCCCOCCOCCOCCOCCOCCOCCOCCO [L7, Heptaethylene Glycol Monododecyl Ether]",
    "MIC": "440 µM"
  },
  {
    "Compound": "CCCCCCCCCCCCOCCOCCO [L2, Diethylene Glycol Monododecyl Ether]",
    "MIC": "220 µM"
  },
  {
    "Compound": "CCCCCCCCCCCCOCCOCCOCCO [L3, Triethylene Glycol Monododecyl Ether]",
    "MIC": "220 µM"
  }
]

Value sought for every listed compound: MIC.
1. CCCCCCCCCCCCOCCOCCOCCOCCO [L4, Tetraethylene Glycol Monododecyl Ether]
2. CCCCCCCCCCCCOCCOCCOCCOCCOCCOCCO [L6, Hexaethylene Glycol Monododecyl Ether]
3. CCCCCCCCCCCCOCCOCCOCCOCCOCCO [L5, Pentaethylene Glycol Monododecyl Ether]
4. CCCCCCCCCCCCOCCO [L1, Ethylene Glycol Monododecyl Ether]

A:
1. 110 µM
2. 220 µM
3. 110 µM
4. 220 µM
